molecular target: ERK5 (Homo sapiens, UniProt Q13164); construct: made in house; assay: ERK5 IMAP assay (fluorescence polarisation); type: biochemical; conditions: average (e.g. geometric mean) where more than one data point; read-out: ERK5 IC50
Sequence (Q13164 whole entry): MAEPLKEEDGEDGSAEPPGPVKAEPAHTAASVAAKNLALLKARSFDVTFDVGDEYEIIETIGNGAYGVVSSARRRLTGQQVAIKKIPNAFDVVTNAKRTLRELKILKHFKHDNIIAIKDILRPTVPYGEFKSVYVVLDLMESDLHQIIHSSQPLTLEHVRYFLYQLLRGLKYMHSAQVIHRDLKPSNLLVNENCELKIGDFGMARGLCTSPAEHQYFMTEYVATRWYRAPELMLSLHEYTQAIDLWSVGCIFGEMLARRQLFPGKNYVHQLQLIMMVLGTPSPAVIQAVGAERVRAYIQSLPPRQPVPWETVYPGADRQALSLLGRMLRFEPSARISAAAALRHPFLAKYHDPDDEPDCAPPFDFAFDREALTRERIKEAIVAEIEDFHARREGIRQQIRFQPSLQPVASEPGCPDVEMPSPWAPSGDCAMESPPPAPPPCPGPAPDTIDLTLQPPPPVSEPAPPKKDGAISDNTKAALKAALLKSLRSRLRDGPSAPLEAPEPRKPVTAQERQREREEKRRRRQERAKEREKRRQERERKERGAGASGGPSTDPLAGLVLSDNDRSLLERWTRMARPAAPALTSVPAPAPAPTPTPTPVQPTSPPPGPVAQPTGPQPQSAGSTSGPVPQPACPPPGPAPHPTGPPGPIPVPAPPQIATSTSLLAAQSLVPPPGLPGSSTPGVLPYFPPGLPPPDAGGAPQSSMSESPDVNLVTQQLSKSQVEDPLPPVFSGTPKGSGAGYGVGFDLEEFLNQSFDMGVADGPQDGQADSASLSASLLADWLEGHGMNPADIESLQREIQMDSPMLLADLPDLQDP
MEASUREMENT_TYPE: IC50 (nM)

Examples with answers:
1. O=C(Nc1cccnc1)c1cc(C(=O)c2c(Cl)ccc(OC(CCl)CCl)c2F)c[nH]1 [Example 271] : 1260
2. CCn1cc(NC(=O)c2cc(C(=O)c3c(Cl)ccc(Cl)c3F)c[nH]2)cn1 [Example 46] : 66.5
3. COc1ccncc1NC(=O)c1cc(C(=O)c2c(F)cccc2Cl)c[nH]1 [Example 90] : 2190
4. Cc1ccc(Cl)c(C(=O)c2c[nH]c(C(=O)Nc3cccnc3)c2)c1F [Example 178] : 515
5. O=C(Nc1cccnc1)c1cc(C(=O)c2c(Cl)ccc(F)c2F)c[nH]1 [Example 221] : 713

I: C=Cc1ccc(F)c(C(=O)c2c[nH]c(C(=O)Nc3cccnc3)c2)c1F [Example 165]
II: O=C(Nc1cccnc1)c1cc(C(=O)c2cc(Cl)ccc2F)c[nH]1 [Example 228]
III: O=C(NC1CCNCC1)c1cc(C(=O)c2c(F)cccc2Cl)c[nH]1 [Example 3]
IV: Cc1ncccc1NC(=O)c1cc(C(=O)c2c(F)cccc2Cl)c[nH]1 [Example 148]
V: COc1ccc(Cl)c(C(=O)c2c[nH]c(C(=O)Nc3cnc(CN4CCOCC4)nc3)c2)c1F [Example 243]
List by increasing IC50. Kindly provide the labels arranged according to the requested ordering.
V, III, IV, I, II

====

molecular target: ERK5 (Homo sapiens); construct: made in house; test: ERK5 IMAP assay (fluorescence polarisation); format: biochemical; conditions: average (e.g. geometric mean) where more than one data point; read-out: ERK5 IC50
MEASUREMENT_TYPE: IC50 (nM)

Examples with answers:
1) O=C(Nc1cnn(C2CCOCC2)c1)c1cc(C(=O)c2c(Cl)ccc(Cl)c2F)c[nH]1 : 148
2) CC(C)N1CCC(NC(=O)c2cc(C(=O)c3c(F)cccc3Cl)c[nH]2)CC1 : 657
3) Cc1ccc(NC(=O)c2cc(C(=O)c3c(F)cccc3Cl)c[nH]2)cn1 : 1030

1: Cc1cc(NC(=O)c2cc(C(=O)c3c(F)cccc3Br)c[nH]2)ccn1
2: Cn1cc(NC(=O)c2cc(C(=O)c3c(Cl)ccc(OC4CCOCC4)c3F)c[nH]2)cn1
Compare 1 and 2 by numeric IC50 and name the larger one. Select an item and report its label.
2
(2: 2800 nM, 1: 1080 nM)

1: C#Cc1cccc(F)c1C(=O)c1c[nH]c(C(=O)NC2CCN(C)CC2)c1
2: COc1ccc(F)c(C(=O)c2c[nH]c(C(=O)Nc3cccnc3)c2)c1Cl
Compare 1 and 2 by numeric IC50 and name the larger one. Select an item and report its label.
1

====

target: ERK5 (Homo sapiens, UniProt Q13164); construct: made in house; assay: ERK5 IMAP assay (fluorescence polarisation); type: biochemical; conditions: average (e.g. geometric mean) where more than one data point; read-out: ERK5 IC50
pIC50: −log10 of the molar value.
MEASUREMENT_TYPE: pIC50

1. O=C(Nc1cccnc1)c1cc(C(=O)c2cccc(Cl)c2Cl)c[nH]1 : 5.83

I: O=C(Nc1cccnc1)c1cc(C(=O)c2c(F)cccc2C(F)(F)F)c[nH]1
II: Cc1cc(NC(=O)c2cc(C(=O)c3c(F)cccc3Cl)c[nH]2)cc(C)n1
Compare I and II by numeric pIC50 and name the larger one. Select an item and report its label.
II
(II: 6.43, I: 5.25)

I: Cc1ccc(F)c(C(=O)c2c[nH]c(C(=O)NC3CCN(C)CC3)c2)c1F
II: CC(C)(C)OC(=O)N1CCC(NC(=O)c2cc(C(=O)c3c(F)cccc3Br)c[nH]2)CC1
III: COCCOc1ccc(Cl)c(C(=O)c2c[nH]c(C(=O)Nc3cnn(C)c3)c2)c1F
List by increasing pIC50. Kindly provide the labels arranged according to the requested ordering.
II, III, I
(II: 5.57, III: 5.92, I: 6.40)

I: CN1CCC(NC(=O)c2cc(C(=O)c3c(F)ccc(Cl)c3Cl)c[nH]2)CC1
II: O=C(Nc1cnccc1N1CCCC1)c1cc(C(=O)c2c(F)cccc2Cl)c[nH]1
III: O=C(Nc1cnn(C2COC2)c1)c1cc(C(=O)c2c(Cl)ccc(Cl)c2F)c[nH]1
IV: Cc1ccc(F)c(C(=O)c2c[nH]c(C(=O)Nc3cccnc3)c2)c1F
V: COc1ccc(Cl)c(C(=O)c2c[nH]c(C(=O)Nc3cnn(CC4CCN(C)CC4)c3)c2)c1F
List by increasing pIC50. Kindly provide the labels arranged according to the requested ordering.
II, IV, I, III, V
(II: 4.78, IV: 6.18, I: 6.55, III: 7.06, V: 7.70)

====

biological target: ERK5 (Homo sapiens, UniProt Q13164); construct: made in house; assay: ERK5 IMAP assay (fluorescence polarisation); type: biochemical; conditions: average (e.g. geometric mean) where more than one data point; read-out: ERK5 IC50
MEASUREMENT_TYPE: IC50 (nM)

1) CCc1ccc(F)c(C(=O)c2c[nH]c(C(=O)Nc3cncnc3)c2)c1F [Example 163] : 3460

A: Cc1cccc(F)c1C(=O)c1c[nH]c(C(=O)Nc2cccnc2)c1 [Example 186]
B: Cc1ccc(F)c(C(=O)c2c[nH]c(C(=O)NC3CCNCC3)c2)c1F [Example 219]
C: Cn1ccnc1Cn1cc(NC(=O)c2cc(C(=O)c3c(Cl)ccc(Cl)c3F)c[nH]2)cn1 [Example 51]
Please list the entries, largest IC50 first. Kindly provide the labels arranged according to the requested ordering.
A, B, C
(A: 2570 nM, B: 628 nM, C: 17.6 nM)

====

Biological target: ERK5 (Homo sapiens, UniProt Q13164)
Construct: made in house
Experiment: ERK5 IMAP assay (fluorescence polarisation)
Format: biochemical
Details: average (e.g. geometric mean) where more than one data point; read-out: ERK5 IC50
Procedure: The assay buffer was prepared using 0.01% Tween®-20 5× stock, supplied as part of IMAP™ FP Progressive Binding System Kit (Molecular Devices R7436) and diluted to 1× using miliQ H2O. […] 1 μL of inhibitor (in 60:40 H2O/DMSO) or 60:40 H2O/DMSO (for controls and blanks) were dry-spotted into the relevant wells of a 384-well assay plate using the MATRIX PlateMate® Plus. […] The assay plate was then read on an Analyst HT plate reader (Molecular Devices) using the settings described below: […]
pIC50: −log10 of the molar value.
MEASUREMENT_TYPE: pIC50

Examples with answers:
1) C=Cc1ccc(F)c(C(=O)c2c[nH]c(C(=O)Nc3cncnc3)c2)c1F : 5.86
2) CCc1ccc(F)c(C(=O)c2c[nH]c(C(=O)Nc3cccnc3)c2)c1F : 5.88
3) CC(C)(C)OC(=O)N1CCC(NC(=O)c2cc(C(=O)c3c(F)cccc3Cl)c[nH]2)CC1 : 5.97
4) Cc1ccc(NC(=O)c2cc(C(=O)c3c(F)cccc3Cl)c[nH]2)c[n+]1[O-] : 5.88

A: CCc1ccc(F)c(C(=O)c2c[nH]c(C(=O)NC3CCN(C)CC3)c2)c1F
B: Cc1ccc(F)c(C(=O)c2c[nH]c(C(=O)Nc3cncnc3)c2)c1Cl
C: COc1ccc(Cl)c(C(=O)c2c[nH]c(C(=O)Nc3ccc(CN4CCNCC4)nc3)c2)c1F
D: O=C(Nc1ccc(OCCO)nc1)c1cc(C(=O)c2c(Cl)ccc(Cl)c2F)c[nH]1
Please list the entries, largest pIC50 first. Kindly provide the labels arranged according to the requested ordering.
C, D, A, B
(C: 8.10, D: 6.41, A: 6.21, B: 5.93)

====

biological target: ERK5 (Homo sapiens, UniProt Q13164); construct: made in house; assay: ERK5 IMAP assay (fluorescence polarisation); format: biochemical; details: average (e.g. geometric mean) where more than one data point; read-out: ERK5 IC50
MEASUREMENT_TYPE: IC50 (nM)

1) O=C(NC1CCNCC1)c1cc(C(=O)c2cc(F)ccc2F)c[nH]1 : 8560
2) O=C(Nc1cnn(C2CCOC2)c1)c1cc(C(=O)c2c(Cl)ccc(Cl)c2F)c[nH]1 (stereo not drawn) : 127
3) O=C(Nc1cccnc1)c1cc(C(=O)c2c(Cl)ccc(OC(CO)CCl)c2F)c[nH]1 (stereo not drawn) : 458
4) O=C(Nc1ccc(CN2CCOCC2)nc1)c1cc(C(=O)c2c(Cl)ccc(Cl)c2F)c[nH]1 : 26.5
5) O=C(NC1CCNCC1)c1cc(C(=O)c2c(F)ccc(Cl)c2F)c[nH]1 : 292
6) COCCN(C)Cc1ccc(NC(=O)c2cc(C(=O)c3c(Cl)ccc(Cl)c3F)c[nH]2)cn1 : 34
7) O=C(Nc1cnc(CN2CCOCC2)nc1)c1cc(C(=O)c2c(Cl)ccc(Cl)c2F)c[nH]1 : 53
8) Cn1cc(NC(=O)c2cc(C(=O)c3c(Cl)ccc(OC4COC4)c3F)c[nH]2)cn1 : 58.3
9) CN1CCC(NC(=O)c2cc(C(=O)c3c(Cl)ccc(F)c3F)c[nH]2)CC1 : 200
10) COc1ccc(Cl)c(C(=O)c2c[nH]c(C(=O)Nc3ccc(CN4CCN(C)CC4)nc3)c2)c1F : 8.5

I: COCCn1cc(NC(=O)c2cc(C(=O)c3c(Cl)ccc(Cl)c3F)c[nH]2)cn1
II: Cc1ccc(F)c(C(=O)c2c[nH]c(C(=O)Nc3cncnc3)c2)c1F
From the items above, decide which of I and II has the lower IC50 reading. Select an item and report its label.
I

meta.source: patent US10344017B2
